Target: Tyrosine-protein kinase ABL2 (Homo sapiens);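 further: values are mean percent inhibition of ARG (ABL2), measured within the GSK PKIS set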
Conditions: at 0.1 µM
I'd appreciate it if you could supply inhibition values for the items below.
Write down the numeric answer in % and omit the unit.

Task item: Using Tyrosine-protein kinase ABL2 (Homo sapiens) as the test system, report measured inhibition of Nc1nccc(C#Cc2cncnc2Nc2ccc(OCc3cccc(F)c3)c(Cl)c2)n1 .
Reply: 3.79

Task item: Using Tyrosine-protein kinase ABL2 (Homo sapiens) as the test system, report measured inhibition of [O-][S+]1CCN(Cc2ccc(-c3ccc4ncnc(Nc5ccc(OCc6ccccc6)c(Cl)c5)c4c3)o2)CC1 .
Reply: 1.82

Task item: Using Tyrosine-protein kinase ABL2 (Homo sapiens) as the test system, report measured inhibition of NS(=O)(=O)c1cccc(-c2cc3ccncc3cc2OCc2ccccc2)c1 .
Reply: 4.36

Task item: Using Tyrosine-protein kinase ABL2 (Homo sapiens) as the test system, report measured inhibition of CCS(=O)(=O)c1ccc(OC)c(Nc2nccc(N(C)c3ccc4c(C)n[nH]c4c3)n2)c1 .
Reply: 42

Task item: Using Tyrosine-protein kinase ABL2 (Homo sapiens) as the test system, report measured inhibition of Cc1ccc(C(=O)NC2CC2)cc1-c1ccc2[nH]ncc2c1 .
Reply: -1.18

Task item: Using Tyrosine-protein kinase ABL2 (Homo sapiens) as the test system, report measured inhibition of CN1CCN(C(=O)c2ccc(NC(=O)Nc3ccc(N(C)c4ccnc(Nc5ccc(CS(C)(=O)=O)cc5)n4)cc3)cc2)CC1 .
Reply: 21.9

Task item: Using Tyrosine-protein kinase ABL2 (Homo sapiens) as the test system, report measured inhibition of Cc1cc(Cl)cc2c1NC(=O)C2=NNc1ccc(S(N)(=O)=O)cc1 .
Reply: 3.13

Task item: Using Tyrosine-protein kinase ABL2 (Homo sapiens) as the test system, report measured inhibition of NS(=O)(=O)c1ccc(Nc2cc(-c3cccc(O)c3)n[nH]2)cc1 .
Reply: 5.93

Task item: Using Tyrosine-protein kinase ABL2 (Homo sapiens) as the test system, report measured inhibition of Cc1cc(O)cc(C)c1/C=C/c1cncc(C(=O)N(C)C)c1 .
Reply: 4.85

Task item: Using Tyrosine-protein kinase ABL2 (Homo sapiens) as the test system, report measured inhibition of COc1cccc(-n2ncc3c(N/N=C/c4ccc(S(C)(=O)=O)cc4)ncnc32)c1 .
Reply: 45.4

* * *

Target: Rhodopsin kinase GRK7 (Homo sapiens) (UniProt Q8WTQ7);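 further: reported figures are mean percent inhibition of GRK7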
Sequence (Q8WTQ7 whole entry): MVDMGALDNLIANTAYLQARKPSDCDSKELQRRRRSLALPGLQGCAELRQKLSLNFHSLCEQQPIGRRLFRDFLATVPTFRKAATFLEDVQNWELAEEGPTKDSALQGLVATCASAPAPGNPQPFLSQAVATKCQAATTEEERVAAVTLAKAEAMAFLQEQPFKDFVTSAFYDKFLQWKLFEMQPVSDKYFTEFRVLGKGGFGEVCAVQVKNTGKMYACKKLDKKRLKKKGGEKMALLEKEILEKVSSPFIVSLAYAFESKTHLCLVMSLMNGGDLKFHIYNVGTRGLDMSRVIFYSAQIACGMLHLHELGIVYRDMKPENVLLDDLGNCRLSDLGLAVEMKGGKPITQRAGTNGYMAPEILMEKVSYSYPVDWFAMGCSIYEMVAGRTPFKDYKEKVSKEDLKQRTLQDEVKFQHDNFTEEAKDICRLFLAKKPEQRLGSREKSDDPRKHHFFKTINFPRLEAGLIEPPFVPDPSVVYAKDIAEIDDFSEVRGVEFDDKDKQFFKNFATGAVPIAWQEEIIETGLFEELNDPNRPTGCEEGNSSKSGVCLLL
Details: at 0.1 µM
I'd appreciate it if you could supply inhibition values for the items below.
Write down the numeric answer in % and omit the unit.

Task item: Please give measured inhibition of the following entry: NS(=O)(=O)c1ccc(NC=C2C(=O)Nc3ccc4ncsc4c32)cc1
Reply: 6.78

Task item: Please give measured inhibition of the following entry: COC(=O)Nc1nc2cc(Oc3ccc(NC(=O)Nc4cccc(Br)c4)cc3)ccc2[nH]1
Reply: 3.16

Task item: Please give measured inhibition of the following entry: Nc1nccc(-c2c(-c3ccc(F)cc3)nn3cc(C(F)(F)F)ccc23)n1
Reply: 3.74

Task item: Please give measured inhibition of the following entry: NC(=O)c1sc(-n2cnc3ccccc32)cc1OCc1ccccc1Br
Reply: 9.12

Task item: Please give measured inhibition of the following entry: Cc1ccc2c(-c3ccnc(Nc4cccc(C(F)(F)F)c4)n3)c(-c3ccccc3)nn2n1
Reply: 10.5

Task item: Please give measured inhibition of the following entry: C[C@@H](Oc1cc(-n2cnc3ccc(OCC4CCN(C)CC4)cc32)sc1C(N)=O)c1ccccc1C(F)(F)F
Reply: 2.15

Task item: Please give measured inhibition of the following entry: CN(C)CCCn1c(-c2nonc2N)nc2cnccc21
Reply: 2.61

Task item: Please give measured inhibition of the following entry: COc1cc(Nc2nccc(-c3cnn4ncccc34)n2)cc(OC)c1
Reply: 6.32

Task item: Please give measured inhibition of the following entry: Oc1cccc(-c2nc(-c3ccccc3)[nH]c2-c2ccncc2)c1
Reply: 1.3

Task item: Please give measured inhibition of the following entry: COc1cccc(-n2ncc3c(N/N=C/c4ccc(S(C)(=O)=O)cc4)ncnc32)c1
Reply: -0.35

Task item: Please give measured inhibition of the following entry: Cc1cc(-c2ccccn2)cc(C)c1/C=C/c1cncc(-c2nn[nH]n2)c1
Reply: 9.3

Task item: Please give measured inhibition of the following entry: COc1cccc(-n2ncc3c(N/N=C/c4ccc(C)cc4)ncnc32)c1
Reply: 11.7

Task item: Please give measured inhibition of the following entry: FC(F)(F)c1ccc(-c2nn3ncccc3c2-c2ccnc(Nc3ccc4c(c3)OCCO4)n2)cc1
Reply: 4.88

Task item: Please give measured inhibition of the following entry: CN1CCN(C(=O)c2ccc(NC(=O)Nc3ccc(N(C)c4ccnc(Nc5ccc(CS(C)(=O)=O)cc5)n4)cc3)cc2)CC1
Reply: 4.4

Task item: Please give measured inhibition of the following entry: CCS(=O)(=O)c1ccc(OC)c(Nc2nccc(N(C)c3ccc4c(C)n[nH]c4c3)n2)c1
Reply: 9.6

Task item: Please give measured inhibition of the following entry: CCOc1nccc2c1nc(-c1nonc1N)n2CC
Reply: 3.99

Task item: Please give measured inhibition of the following entry: Cc1ccc(NC(=O)CC2CC2)cc1-c1ccc(C(=O)NCC2CC2)cc1
Reply: 0.94

Task item: Please give measured inhibition of the following entry: COc1cc2ncnc(Nc3ccc(C)c(O)c3)c2cc1OC
Reply: 4.99

Task item: Please give measured inhibition of the following entry: c1ccc(Nc2ncc(-c3ccccc3)o2)cc1
Reply: 9.62

Task item: Please give measured inhibition of the following entry: C[C@@H](Oc1cc(-n2cnc3ccc(OC[C@@H](O)CO)cc32)sc1C(N)=O)c1ccccc1Cl
Reply: -4.63

Task item: Please give measured inhibition of the following entry: COc1cc2ncnc(Nc3ccc4c(cnn4Cc4ccccc4)c3)c2cc1OC
Reply: 9.43

* * *

I'd appreciate it if you could supply inhibition values for the items below.
Molecular target: Protein-tyrosine kinase 6 (Homo sapiens)
Details: at 1 µM
Description: GSK_PKIS: BRK mean inhibition at 1 uM [Nanosyn]
Write down the numeric answer in % and omit the unit.

Task item: Using Protein-tyrosine kinase 6 (Homo sapiens) as the test system, report measured inhibition of OCc1ccc(-c2nc(-c3ccccn3)c(-c3ccc4c(c3)OCO4)[nH]2)cc1 .
Reply: 5.07

Task item: Using Protein-tyrosine kinase 6 (Homo sapiens) as the test system, report measured inhibition of Oc1cccc(-c2nc(-c3ccccc3)[nH]c2-c2ccncc2)c1 .
Reply: 55.4

Task item: Using Protein-tyrosine kinase 6 (Homo sapiens) as the test system, report measured inhibition of CS(=O)(=O)Nc1cccc(-c2ccc3c(NC(=O)C4CC4)n[nH]c3c2)c1 .
Reply: -2.5

Task item: Using Protein-tyrosine kinase 6 (Homo sapiens) as the test system, report measured inhibition of O=S(=O)(CCOCc1ccc(-c2ccc3ncnc(Nc4ccc(OCc5cccc(F)c5)c(Cl)c4)c3c2)o1)c1ccccc1 .
Reply: 1.77

Task item: Using Protein-tyrosine kinase 6 (Homo sapiens) as the test system, report measured inhibition of COc1cccc(-n2ncc3c(N/N=C/c4ccc(S(C)(=O)=O)cc4)ncnc32)c1 .
Reply: 26.8

* * *

Biological target: Platelet-derived growth factor receptor beta (Homo sapiens);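 further: each value is a mean percent inhibition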
Details: at 1 µM
I'd appreciate it if you could supply inhibition values for the items below.
Write down the numeric answer in % and omit the unit.

Task item: Please give measured inhibition of the following entry: CN(C)C(=O)O[C@H]1CN[C@H](C#Cc2cc3ncnc(Nc4ccc(OCc5cccc(F)c5)c(Cl)c4)c3s2)C1
Reply: 6.43

Task item: Please give measured inhibition of the following entry: CCS(=O)(=O)c1ccc(OC)c(Nc2nccc(N(C)c3ccc4c(C)n[nH]c4c3)n2)c1
Reply: 70.9

Task item: Please give measured inhibition of the following entry: COc1cc(/C=N/Nc2ncnc3c2cnn3C(C)C)ccc1O
Reply: 45.1

Task item: Please give measured inhibition of the following entry: COC(=O)c1ccc2c(c1)C(=Cc1cc(Br)c(O)c(Br)c1)C(=O)N2
Reply: 6.26

Task item: Please give measured inhibition of the following entry: NS(=O)(=O)c1ccc(N/N=C2\C(=O)Nc3ccc(Cl)cc32)cc1
Reply: 36.7

Task item: Please give measured inhibition of the following entry: ON=C1CCc2cc(-c3nc(C4CCNCC4)[nH]c3-c3ccncc3)ccc21
Reply: 23.3

Task item: Please give measured inhibition of the following entry: [O-][S+]1CCN(Cc2ccc(-c3ccc4ncnc(Nc5ccc(OCc6ccccc6)c(Cl)c5)c4c3)o2)CC1
Reply: 4.43

Task item: Please give measured inhibition of the following entry: Cc1cc(-c2ccccn2)cc(C)c1/C=C/c1cncc(-c2nn[nH]n2)c1
Reply: 13.4

Task item: Please give measured inhibition of the following entry: CS(=O)(=O)Nc1cccc(-c2ccc3c(NC(=O)C4CC4)n[nH]c3c2)c1
Reply: 7.8

Task item: Please give measured inhibition of the following entry: CCOc1nccc2c1nc(-c1nonc1N)n2CC
Reply: 20.2

Task item: Please give measured inhibition of the following entry: Cc1cc(Cl)cc2c1NC(=O)C2=NNc1ccc(S(N)(=O)=O)cc1
Reply: 6.52

Task item: Please give measured inhibition of the following entry: Nc1ccc(C#Cc2cncnc2Nc2ccc(OCc3cccc(F)c3)c(Cl)c2)cc1
Reply: 3.64

Task item: Please give measured inhibition of the following entry: Cc1ccc(C(=O)NC2CC2)cc1-c1ccc2[nH]ncc2c1
Reply: 6.94

Task item: Please give measured inhibition of the following entry: N#Cc1c(NC(=O)c2ccccc2F)sc2c1CCCC2
Reply: 3.62

Task item: Please give measured inhibition of the following entry: Cc1ccc(NC(=O)CC2CC2)cc1-c1ccc(C(=O)NCC2CC2)cc1
Reply: 8.86

Task item: Please give measured inhibition of the following entry: c1ccc(Nc2ncc(-c3ccccc3)o2)cc1
Reply: 36

Task item: Please give measured inhibition of the following entry: NC(=O)c1sc(-n2cnc3ccccc32)cc1OCc1ccccc1Br
Reply: 14.4

Task item: Please give measured inhibition of the following entry: COC(=O)Nc1nc2cc(Oc3ccc(NC(=O)Nc4cccc(Br)c4)cc3)ccc2[nH]1
Reply: 35.9

Task item: Please give measured inhibition of the following entry: NS(=O)(=O)c1ccc(Nc2cc(-c3cccc(O)c3)n[nH]2)cc1
Reply: 26.1

Task item: Please give measured inhibition of the following entry: COc1cccc(-n2ncc3c(N/N=C/c4ccc(S(C)(=O)=O)cc4)ncnc32)c1
Reply: 78.1

Task item: Please give measured inhibition of the following entry: CCS(=O)(=O)c1ccc(OC)c(Nc2ncc(-c3cccc(OC)c3)o2)c1
Reply: 74.8
